# Tested on: m-IMCD3 cells
# ASSAY INFO: Inhibition of PGE2-stimulated in vitro cyst formation in m-IMCD3 cells
# Format: cell-based, mouse
# APPLIED CONDITIONS: Mus musculus, mIMCD3, 144 h, 10 μM; mean cyst area, 100% for (DMSO + PGE2) and 0% for DMSO control; 6 days of culture; read-out: % Cyst area after incubation with 10 μM test compound
MEASURED METRIC: activity at 10 µM (%)
The answer is to be given in %; state only the numeric part.

# activity at 10 µM lookup, item CC1(C)CC(CC(=O)N2CCc3nc(N4C5CCC4CNC5)sc3C2)C1 [Example 119]
-10

# activity at 10 µM lookup, item O=C(COc1ccc(F)cc1)N1CCc2nc(N3CCNCC3)sc2C1 [Example 110]
-5

# activity at 10 µM lookup, item O=C(NC1CCC(F)(F)CC1)N1CCn2nc(N3C4CCC3CNC4)cc2C1 [Example 70]
7

# activity at 10 µM lookup, item O=C(CC1CCCC1)N1CCn2nc(N3C4CCC3CNC4)cc2C1 [Example 127]
3

# activity at 10 µM lookup, item CC1(NC(=O)N2CCc3nc(N4C5CCC4CNC5)sc3C2)CCC1 [Example 124]
-12

# activity at 10 µM lookup, item COc1cc(F)ccc1CC(=O)N1CCc2nc(N3C4CCC3CNC4)sc2C1 [Example 140]
0

# activity at 10 µM lookup, item O=C(Cc1cnccn1)N1CCc2nc(N3C4CCC3CNC4)sc2C1 [Example 136]
18

# activity at 10 µM lookup, item O=C(CC1CCCC1)N1CCc2nc(N3CCNC[C@H]3CO)sc2C1 [Example 284]
19

# activity at 10 µM lookup, item O=C(CC1CCC(F)(F)CC1)N1CCn2nc(N3C4CCC3CNC4)cc2C1 [Example 71]
-3

# activity at 10 µM lookup, item O=C(CC1CCC(F)(F)CC1)N1CCc2nc(N3C4CCC3CNC4)sc2C1 [Example 2]
2

# activity at 10 µM lookup, item O=C(N1CCc2nc(N3C4CCC3CNC4)sc2C1)N1CCC2(CCC2)C1 [Example 123]
-4

# activity at 10 µM lookup, item O=C(CC1CCCC1)N1Cc2nc(N3C4CCC3CNC4)sc2C1 [Example 66]
-5
